Tested on: ECa-109 cell line
protocolDetails: Antiproliferative activity against human EC109 cells assessed as inhibition of cell growth incubated for 72 hrs by SRB assay
Assay type: functional, cell-based
conditionSummary: ECa-109, 72 h
Category | rule: reported IC50 within range, see A: < 300 nM; B: ≥ 300 nM and < 600 nM; C: ≥ 600 nM

For orientation, consider the following solved cases.
Prompt line: Where would "C=C1C(=O)[C@@]23[C@H](O)C[C@@H]4C(C)(C)CCC[C@@]4(COC(C)=O)[C@@H]2[C@@H](O)C[C@H]1[C@H]3O" land among the classes by reported IC50?
Response line: C

Prompt line: Class (by measured IC50) for "C=C1C(=O)[C@@]23[C@H](O)C[C@@H]4C(C)(C)CCC[C@@]4(COC(C)=O)[C@@H]2[C@@H](O)C[C@H]1[C@H]3OC(=O)c1ccc(Cl)cc1"
Response line: B

Prompt line: Hello team, could you let me know which band the following compound falls into: "C=C1C(=O)[C@@]23[C@H](O)C[C@@H]4C(C)(C)CCC[C@@]4(COC(C)=O)[C@@H]2[C@@H](O)C[C@H]1[C@H]3OC(=O)c1cccc(F)c1"
Response line: C

Prompt line: Which class is correct for the following compound? "C=C1C(=O)[C@@]23[C@H](O)C[C@@H]4C(C)(C)CCC[C@@]4(COC(C)=O)[C@@H]2[C@@H](O)C[C@H]1[C@H]3OC(=O)c1ccc(OC)cc1"
Response line: A

Prompt line: Please classify: "C=C1C(=O)[C@@]23[C@H](O)C[C@@H]4C(C)(C)CCC[C@@]4(COC(C)=O)[C@@H]2[C@@H](O)C[C@H]1[C@H]3OC(=O)c1cc(Cl)ccc1OC"
Response line: B

Further cases:
Prompt line: Pick a category. Item: "C=C1C(=O)[C@@]23[C@H](O)C[C@@H]4C(C)(C)CCC[C@@]4(COC(C)=O)[C@@H]2[C@@H](O)C[C@H]1[C@H]3OC(=O)c1ccc(C(F)(F)F)cc1"
Response line: B

Prompt line: Pick a category. Item: "C=C1C(=O)[C@@]23[C@H](O)C[C@@H]4C(C)(C)CCC[C@@]4(COC(C)=O)[C@@H]2[C@@H](O)C[C@H]1[C@H]3OC(=O)c1cccc(C(F)(F)F)c1"
Response line: B

Prompt line: Please indicate the class for "C=C1C(=O)[C@@]23[C@H](O)C[C@@H]4C(C)(C)CCC[C@@]4(COC(C)=O)[C@@H]2[C@@H](O)C[C@H]1[C@H]3OC(=O)c1ccccc1" based on its IC50.
Response line: B

Prompt line: Category of "C=C1C(=O)[C@]23[C@H](O)[C@H]1CC[C@H]2[C@@]12CO[C@]3(O)[C@@H](O)[C@@H]1C(C)(C)CC[C@@H]2O" :
Response line: C

Prompt line: Returns: class label. Input: "C=C1C(=O)[C@@]23[C@H](O)C[C@@H]4C(C)(C)CCC[C@@]4(COC(C)=O)[C@@H]2[C@@H](O)C[C@H]1[C@H]3OC(=O)c1cccc(Br)c1"
Response line: A

Prompt line: Determine which band this compound sits in: "C=C1C(=O)[C@@]23[C@H](O)C[C@@H]4C(C)(C)CCC[C@@]4(COC(C)=O)[C@@H]2[C@@H](O)C[C@H]1[C@H]3OC(=O)c1ccccc1C(F)(F)F"
Response line: B
